Listed here are sequences together with their documented protease stability score.
- testProtocol: protease stability score; higher = more stable; yeast display proteolysis, trypsin and chymotrypsin;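 further: relative to predicted unfolded state with 0 unfolded-like and 1 meaning tenfold more protease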
readoutLabel: protease stability score

                                biosequence   val
0  DEDEEHAYRIFKILLESVYTGNEEMLHTLLDPHARLVFDGVHHHGRETVSYMMHHWRVEEFHTHSFHVDIINGVADLKWDGHITGHFNGKRQESRVEIRFFLRKVDGKWLNESVEIIFR  1.49
1  DEKEEILVDLFKHFLEAMLTGDEEQVNRLVDPNARHDIDGVEHHGWEFLEWFLSRVDHIELLEVKRVRNIDGRIEADLHIDITVNGKKERHDVEVHIVIIDGVFHSIKVIKH  2.23
2  SEEEKIFEMAIKLMRHTLQTGDESTLHRLLDPHVRVVIGDKTYVGREATEFLLTRIDHIHDVEIHEVELINGRVNMHGIVDGTIGDKRVHVESNWVASKYDGRWHLKSISFH  1.29
3  SELKEEVDRWAKRFIHAVETGDEDTILKFMDPHVKSSVGEKVHHGREFLIIIWRELRIRHFTVHHIRVDEDHLIIHMEWQGHVNGKEIRLEVDLFIRKVDGVWIMKHIEIR  2.03
4  DEEREFSERAIEMSLEDWLTGDEHRMHRMLDPHVRLDIDGRDIIGRERMTKIIFEINKTLGVDHVEFHDHEIQGDKVHSHLDVHINGRRLRITLHLYKIDGRWQIREVKVV  1.13
5  DEDEEEMHHRIEEHFEYLRTGDWKLIRNLVDPSVRVDVDGKEHHGWHEFVRYAVHIRVRRYELKHIRIIDGQVDFQGRIDGEIDGKFRSFNIFIIAQKIDGRWIFKEVRMH  1.68
